Parameter: SPOT peptide array binding signal intensity. Scope: all listed entries.
# test.system: AgMyo5
# assay.explanation: SPOT peptide array binding signal intensity (averaged, normalized) (arbitrary units (background-subtracted, floor 0; scale differs between SH3 domains)); higher = stronger binding of the SH3 domain to the peptide
property: SPOT peptide array binding signal intensity

{"binder": "TIRRRAPLSLLESHT", "value": "≤ 0"}
{"binder": "NVLRKILEIPLHSFS", "value": "≤ 0"}
{"binder": "KDKKTKPTPPPKPSH", "value": "≤ 0"}
